system: panel of approximately 60 cancer cell lines; assay: NCI-60 screen (SRB, 48 h), full panel; settings: Homo sapiens, read-out: LC50 MG_MID60, average over all cell lines
property: CC50 (µM)
Answers are plain numbers, in µM.

Okay, here is my list. What is CC50 for each of these?
1. Cc1ccc(S(=O)(=O)OC[C@]23CCC(C)(C)C[C@H]2C2=CC[C@@H]4[C@@]5(C)CCCNC(C)(C)[C@@H]5CC[C@@]4(C)[C@]2(C)CC3)cc1
2. CC(C)=C1CCC=C2CC[C@]3(C)[C@H](CC[C@@H]4[C@@]5(C)CCCNC(C)(C)[C@@H]5CC[C@]43C)[C@H]21
3. CC1(C)NCCC[C@]2(C)[C@H]3C=CC4=C5C[C@@](C)(CO)CC[C@]5(C)CC[C@@]4(C)[C@]3(C)CC[C@@H]12

Result string:
1. 18.9
2. 6.43
3. 41.9
